- Procedure summary: A549 cell viability effects, profiling panel, calcein-AM fluorescence, 48 h, basal (AID 1162); further: test concentration not given here
- Run conditions: higher = more signal
Measured endpoint: z-score

>  <Compound>
COC(=O)[C@@]1(Cc2ccccc2)[C@H]2c3cc(C(=O)N(C)C)n(Cc4c(-c5ccccc5)noc4C)c3C[C@H]2CN1C(=O)c1ccccc1

>  <Measured endpoint>
z-score

>  <Assay result>
-0.914

$$$$
>  <Compound>
CCC[C@@H]1C=C(C(=O)O)[C@H](c2ccc(C)cc2)N1S(=O)(=O)c1ccc(C)cc1

>  <Measured endpoint>
z-score

>  <Assay result>
-0.85

$$$$
>  <Compound>
O=C/C=C/c1ccc(Cl)cc1

>  <Measured endpoint>
z-score

>  <Assay result>
1.04

$$$$
>  <Compound>
COC(=O)C[C@@H]1C[C@H](C)[C@]2(O1)C(=O)N(Cc1ccccc1)c1ccc(NC(C)=O)cc12

>  <Measured endpoint>
z-score

>  <Assay result>
-0.0958

$$$$
>  <Compound>
C=CC[C@]1(C(=O)N2CCOCC2)N=C(c2ccc(OCCCO)cc2)O[C@H]1c1ccccc1

>  <Measured endpoint>
z-score

>  <Assay result>
-0.211

$$$$
>  <Compound>
CC(=O)C1=CCC(c2ccccc2)N(S(=O)(=O)c2ccc(C)cc2)C1 (stereo unspecified)

>  <Measured endpoint>
z-score

>  <Assay result>
-0.346

$$$$
>  <Compound>
C#CCN(C(/C=C/c1ccccc1)CO)C(C(=O)O)c1ccccc1 (stereo unspecified)

>  <Measured endpoint>
z-score

>  <Assay result>
-0.341

$$$$
>  <Compound>
CC(C)C[C@@H]1NC(=O)[C@H]2C[C@@H](C(=O)NCCCCCCNC(=O)CS)[C@@H](c3cccc(OCCO)c3)N2C1=O

>  <Measured endpoint>
z-score

>  <Assay result>
0.0674

$$$$
>  <Compound>
COc1ccc([Si](C)(C)[C@@H]2[C@@H](CCn3cc([C@H](O)c4ccccc4)nn3)O[C@]3(C(=O)N(Cc4cccc(N5CCOC5=O)c4)c4ccccc43)[C@H]2C)cc1

>  <Measured endpoint>
z-score

>  <Assay result>
1.6

$$$$
>  <Compound>
CCCCCN1CC=CC23O[C@@H]4/C=C\CCC(C)OC(=O)C4[C@H]2C(=O)N(CCCCCO)[C@@H]3C1=O (stereo partly specified)

>  <Measured endpoint>
z-score

>  <Assay result>
-0.213

$$$$
>  <Compound>
O=C1C[C@]2(c3ccc([N+](=O)[O-])cc3)C(=O)N(CC(F)(F)F)c3cc(CO)ccc3[C@H]2N1CC12CC3CC(CC(C3)C1)C2

>  <Measured endpoint>
z-score

>  <Assay result>
0.831

$$$$
>  <Compound>
O=C1OCCC=C[C@H]2OC34C=CCN(Cc5ccccc5)C(=O)[C@H]3N(CCCCCCO)C(=O)[C@@H]4C12 (stereo partly specified)

>  <Measured endpoint>
z-score

>  <Assay result>
0.612

$$$$
>  <Compound>
CC(C)CNC(=O)[C@@]1(c2ccc([N+](=O)[O-])cc2)CC(=O)N(CC23CC4CC(CC(C4)C2)C3)[C@@H]1c1ccc(CO)cc1

>  <Measured endpoint>
z-score

>  <Assay result>
-0.642

$$$$
>  <Compound>
COc1ccccc1CN1C(=O)c2ccccc2[C@@H](C(=O)NCCN2CCOCC2)[C@@H]1c1ccc(CO)cc1

>  <Measured endpoint>
z-score

>  <Assay result>
0.61

$$$$
>  <Compound>
O=C1C=CC(=O)[C@@H]2CC(COc3ccccc3)=C3[C@@H](CCc4ccccc4)OB(O)C[C@@H]3[C@H]12

>  <Measured endpoint>
z-score

>  <Assay result>
-0.491

$$$$
>  <Compound>
COc1c(C)cc(-c2cc3c(c(-c4ccc(Oc5ccccc5)cc4)n2)[Si](C(C)C)(C(C)C)OC3)cc1C

>  <Measured endpoint>
z-score

>  <Assay result>
-0.342

$$$$

###

- Tested on: Sam68 (KHDRBS1)
- Procedure summary: Sam68 small-molecule binders, primary screen, biochemical, small-molecule microarray, 635 nm fluorescence (AID 1125);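 further: score merges 667 nm channel intensity with signal to noise over triplicate slides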
- Run conditions: small-molecule microarray binding, higher = more signal
composite z-score reference

>  <Compound>
C=C[C@H](C)[C@@H](O)c1ccc(O)c2ccccc12

>  <composite z-score>
-0.49

$$$$
>  <Compound>
CCOC(=O)C1=CC[C@@H](c2ccccc2)N(S(=O)(=O)c2ccc(C)cc2)[C@H]1C(=O)OCC

>  <composite z-score>
1.12

$$$$
>  <Compound>
[N-]=[N+]=NCc1ccccc1[C@@H]1OC(c2ccc(OCCCO)cc2)=N[C@]1(Cc1ccccc1N=[N+]=[N-])C(=O)NCc1ccccc1

>  <composite z-score>
1.26

$$$$
>  <Compound>
C=CCNC(=O)[C@@H]1[C@H]2C(=O)O[C@H](c3ccccc3)[C@H](c3ccccc3)N2[C@H](c2ccc(O)cc2)[C@@]12C(=O)N(C(=O)OCCOC)c1ccccc12

>  <composite z-score>
1.28

$$$$
>  <Compound>
CC(C)C(=C=CC[C@H](O)c1cccc(OCCO)c1)C[C@H](O)COCc1ccccc1

>  <composite z-score>
0.166

$$$$
>  <Compound>
COc1ccc([Si](C)(C)[C@H]2[C@H](CCn3cc([C@H](O)c4ccccc4)nn3)O[C@@]3(C(=O)N(Cc4cccc(N5CCC5=O)c4)c4ccccc43)[C@@H]2C)cc1

>  <composite z-score>
0.316

$$$$
>  <Compound>
COC(=O)c1ccc(C23CC2(C(NP(=O)(c2ccccc2)c2ccccc2)c2ccccc2)C3)cc1 (stereo unspecified)

>  <composite z-score>
0.921

$$$$
>  <Compound>
CC(C)(C)OC(=O)CC[C@@]1(C(=O)O)N=C(c2ccc(OCCCO)cc2)O[C@@H]1c1ccccc1N=[N+]=[N-]

>  <composite z-score>
1.12

$$$$
>  <Compound>
COCCOC(=O)N1C(=O)[C@@]2(c3cc(C#CCC(C(=O)OC)C(=O)OC)ccc31)[C@H](c1ccccc1OCCO)N1[C@H](c3ccccc3)[C@H](c3ccccc3)OC(=O)[C@H]1[C@@H]2C(=O)N1CCc2cc(OC)c(OC)cc2C1

>  <composite z-score>
1.29

$$$$
>  <Compound>
O=C1O[C@H](c2ccccc2)[C@H](c2ccccc2)N2[C@H]1[C@@H](C(=O)O)[C@]1(C(=O)Nc3ccc(C#CC4=CCCCC4)cc31)[C@H]2c1ccc(OCCO)cc1

>  <composite z-score>
1.29

$$$$
>  <Compound>
Cc1ccc(S[C@]2(C(=O)NCc3ccccc3)CC(=O)N(Cc3ccccc3)[C@@H]2c2ccc(CO)cc2)cc1

>  <composite z-score>
0.176

$$$$
>  <Compound>
O=c1cccc(CCc2ccccc2)o1

>  <composite z-score>
0.854

$$$$
>  <Compound>
CC1CC/C=C\[C@H]2OC34C=CCN(Cc5ccccc5)C(=O)[C@H]3N(CCCCCO)C(=O)[C@@H]4C2C(=O)O1 (stereo partly specified)

>  <composite z-score>
-0.883

$$$$
>  <Compound>
CCCC[C@@H]1C[C@H]1[C@@H](NC(=O)c1ccc(-c2ccccc2)cc1)c1ccc(-c2ccccc2)cc1

>  <composite z-score>
0.287

$$$$
>  <Compound>
COc1ccc(C(O)C2C=CC3C(=O)N(C)C(=O)C3N2Nc2ccccc2)cc1OCc1ccccc1 (stereo unspecified)

>  <composite z-score>
1.28

$$$$
>  <Compound>
Cc1ccc(S[C@]2(C(=O)NC3CC3)CC(=O)N(Cc3ccccc3)[C@@H]2c2ccc(CO)cc2)cc1

>  <composite z-score>
-0.664

$$$$

###

Parameter: z-score. Scope: all listed entries.
- Procedure summary: basal MM1S mitochondrial membrane potential changes, profiling panel, cell-based, JC-1 fluorescence, 24 h, 100 nL compound (AID 1170); further: test concentration not given here
- Run conditions: higher = more signal

>  <Compound>
COC(=O)[C@@]1(Cc2ccc(OC)cc2)[C@H]2c3cc(C(=O)N4CCCC4)n(Cc4ccccn4)c3C[C@H]2CN1C(=O)c1ccccc1

>  <z-score>
0.208

$$$$
>  <Compound>
[N-]=[N+]=NCc1ccccc1C[C@@]1(C(=O)NCC(O)CO)N=C(c2ccc(OCCCO)cc2)O[C@@H]1c1ccccc1CN=[N+]=[N-] (stereo not given in full)

>  <z-score>
-0.737

$$$$
>  <Compound>
COC(=O)c1ccc(C23CC2(C(NP(=O)(c2ccccc2)c2ccccc2)c2ccccc2)C3)cc1 (stereo not given)

>  <z-score>
-1.45

$$$$
>  <Compound>
C=C[C@@H](COC(C)=O)N(Cc1ccc([N+](=O)[O-])cc1)S(=O)(=O)c1ccc(Br)cc1

>  <z-score>
0.198

$$$$
>  <Compound>
CCOc1cc(C(O)C2C=CC3C(=O)N(c4ccccc4)C(=O)C3N2Nc2ccc([N+](=O)[O-])cc2)ccc1O (stereo not given)

>  <z-score>
-0.908

$$$$
>  <Compound>
CC(C)N1C(=O)[C@@]2(c3ccc([N+](=O)[O-])cc3)CC(=O)N(CC34CC5CC(CC(C5)C3)C4)[C@@H]2c2ccc(CO)cc21

>  <z-score>
-0.512

$$$$
>  <Compound>
COC(=O)c1c(CC[C@@H](CO)NC(=O)N[C@@H](Cc2ccccc2)Cn2cc(C3(O)CCCCC3)nn2)oc(C(C)=O)c1C(=O)OC

>  <z-score>
-0.403

$$$$
>  <Compound>
COC(=O)c1ccc(OC)c(/C=C\CC(OC(C)=O)c2ccccc2)c1 (stereo not given)

>  <z-score>
0.0862

$$$$
>  <Compound>
Cc1cc(C)c(C(O)C2C=CC3C(=O)N(C)C(=O)C3N2Nc2ccccc2)c(C)c1 (stereo not given)

>  <z-score>
0.434

$$$$
>  <Compound>
CCOC(=O)C[C@H]1[C@H](OC(=O)Cc2ccc3c(c2)OCO3)[C@@H](NC(=O)c2ccc(-c3ccccc3)cc2)c2cc(OCCCO)ccc2N1C(=O)c1ccccc1

>  <z-score>
-0.0178

$$$$
>  <Compound>
CC(C)C[C@@H]1NC(=O)[C@H]2C[C@@H](C(=O)NCCCCCCNC(=O)CS)[C@@H](c3cccc(OCCO)c3)N2C1=O

>  <z-score>
-0.343

$$$$
>  <Compound>
[N-]=[N+]=NCc1ccccc1[C@H]1OC(c2ccc(OCCCO)cc2)=N[C@@]1(CCS(=O)(=O)c1ccccc1)C(=O)N1CCOCC1

>  <z-score>
-0.877

$$$$
>  <Compound>
O=C1OCC=C[C@H]2OC34C=CCN(c5ccc(Cl)cc5)C(=O)[C@H]3N(CCCCCCO)C(=O)[C@@H]4[C@@H]12 (stereo not given in full)

>  <z-score>
1.5

$$$$
>  <Compound>
C=CCNC(=O)[C@@H]1[C@H]2C(=O)O[C@H](c3ccccc3)[C@H](c3ccccc3)N2[C@H](c2ccc(OCCO)cc2)[C@@]12C(=O)Nc1ccccc12

>  <z-score>
0.224

$$$$
>  <Compound>
N#Cc1ccc(NN2C(C(O)c3cccs3)C=CC3C(=O)N(c4ccccc4)C(=O)C32)cc1 (stereo not given)

>  <z-score>
-0.218

$$$$
